Data origin, for the record: ChEMBL document CHEMBL3885881

- Organism: Rattus norvegicus
- procedure_details: DrugMatrix - Regimen: Daily Repeat
- Format: toxicity, organism-based, Sprague-Dawley
- Design: regimen Daily Repeat, gender Male, age 6-8 weeks
- experimental_parameters: in vivo, iv, 0 mg/kg, 120 h, tissue Plasma, dose level Control, time 5 day, vehicle 100 % SALINE
Each entry below lists one item and its recorded TOTAL BILIRUBIN value.
metric_name: TOTAL BILIRUBIN

[
  {
    "compound": "CN(N=O)C(=O)N[C@@H](C=O)[C@@H](O)[C@H](O)[C@H](O)CO [STREPTOZOCIN]",
    "metric_name": "TOTAL BILIRUBIN",
    "measured": "0.18 mg/dL"
  },
  {
    "compound": "CC[C@@]1(O)C(=O)OCc2c1cc1n(c2=O)Cc2cc3ccccc3nc2-1 [CAMPTOTHECIN]",
    "metric_name": "TOTAL BILIRUBIN",
    "measured": "0.22 mg/dL"
  },
  {
    "compound": "NCC[C@H](O)C(=O)N[C@@H]1C[C@H](N)[C@@H](O[C@H]2O[C@H](CN)[C@@H](O)[C@H](O)[C@H]2O)[C@H](O)[C@H]1O[C@H]1O[C@H](CO)[C@@H](O)[C@H](N)[C@H]1O [AMIKACIN]",
    "metric_name": "TOTAL BILIRUBIN",
    "measured": "0.18 mg/dL"
  },
  {
    "compound": "CC1(C)S[C@@H]2[C@H](NC(=O)[C@H](NC(=O)N3CCNC3=O)c3ccccc3)C(=O)N2[C@H]1C(=O)O [AZLOCILLIN]",
    "metric_name": "TOTAL BILIRUBIN",
    "measured": "0.2 mg/dL"
  }
]

---

Each entry below lists one item and its recorded ABSOLUTE SEGMENTED NEUTROPHIL value.
- Species on record: Rattus norvegicus
- procedure_details: DrugMatrix - Regimen: Daily Repeat
- Format: toxicity, organism-based, Sprague-Dawley
- Set-up: regimen Daily Repeat, gender Male, age 6-8 weeks
- experimental_parameters: in vivo, po, 0 mg/kg, 120 h, tissue Blood, route oral GAVAGE, dose level Control, time 5 day, vehicle 100 % WATER
metric_name: ABSOLUTE SEGMENTED NEUTROPHIL (CELLS/uL)

[
  {
    "compound": "CN1CCC[C@H]1c1cccnc1",
    "measured": 1187.83
  },
  {
    "compound": "COc1ccc(C(CN(C)C)C2(O)CCCCC2)cc1 (stereo not given)",
    "measured": 1235.5
  },
  {
    "compound": "Nc1ccc(S(=O)(=O)Nc2ccnn2-c2ccccc2)cc1",
    "measured": 1283
  },
  {
    "compound": "CC(CCc1ccccc1)NCC(O)c1ccc(O)c(C(N)=O)c1 (stereo not given)",
    "measured": 2116.33
  },
  {
    "compound": "CN1CCN(C(=O)OC2c3nccnc3C(=O)N2c2ccc(Cl)cn2)CC1 (stereo not given)",
    "measured": 674.83
  },
  {
    "compound": "COc1cccc(C2(O)CCCCC2CN(C)C)c1 (stereo not given)",
    "measured": 725.5
  },
  {
    "compound": "Cn1cnc([N+](=O)[O-])c1Sc1ncnc2nc[nH]c12",
    "measured": 435.17
  },
  {
    "compound": "Cc1cc(NS(=O)(=O)c2ccc(N)cc2)no1",
    "measured": 1235.5
  },
  {
    "compound": "Clc1ccc(C(c2ccccc2Cl)C(Cl)Cl)cc1 (stereo not given)",
    "measured": 896.5
  },
  {
    "compound": "NCC1(CC(=O)O)CCCCC1",
    "measured": 1028.67
  }
]

---

- Organism: Rattus norvegicus
- procedure_details: DrugMatrix - Regimen: Daily Repeat
- Format: toxicity, organism-based, Sprague-Dawley
- Design: regimen Daily Repeat, gender Male, age 6-8 weeks
- experimental_parameters: in vivo, iv, 0 mg/kg, 120 h, tissue Plasma, dose level Control, time 5 day, vehicle 100 % SALINE
metric_name: PHOSPHORUS (mg/dL)

[
  {
    "smiles_notation": "CN(N=O)C(=O)N[C@@H](C=O)[C@@H](O)[C@H](O)[C@H](O)CO",
    "measured": 12.3
  },
  {
    "smiles_notation": "CC[C@@]1(O)C(=O)OCc2c1cc1n(c2=O)Cc2cc3ccccc3nc2-1",
    "measured": 11.67
  },
  {
    "smiles_notation": "CC1(C)S[C@@H]2[C@H](NC(=O)[C@H](NC(=O)N3CCNC3=O)c3ccccc3)C(=O)N2[C@H]1C(=O)O",
    "measured": 12.05
  },
  {
    "smiles_notation": "NCC[C@H](O)C(=O)N[C@@H]1C[C@H](N)[C@@H](O[C@H]2O[C@H](CN)[C@@H](O)[C@H](O)[C@H]2O)[C@H](O)[C@H]1O[C@H]1O[C@H](CO)[C@@H](O)[C@H](N)[C@H]1O",
    "measured": 10.32
  }
]

---

- Species: Rattus norvegicus
- procedure_details: DrugMatrix - Regimen: Daily Repeat
- Assay type: toxicity, organism-based, Sprague-Dawley
- Parameters: regimen Daily Repeat, gender Male, age 6-8 weeks
- experimental_parameters: in vivo, po, 0 mg/kg, 120 h, tissue Plasma, route oral GAVAGE, dose level Control, time 5 day, vehicle .5 % CMC

[
  {
    "molecule": "Cc1c(-c2ccccc2)oc2c(C(=O)OCCN3CCCCC3)cccc2c1=O [FLAVOXATE]",
    "ASPARTATE AMINOTRANSFERASE / u/L": 81.67
  },
  {
    "molecule": "CN1C(C(=O)Nc2ccccn2)=C(O)c2ccccc2S1(=O)=O [PIROXICAM]",
    "ASPARTATE AMINOTRANSFERASE / u/L": 63.33
  },
  {
    "molecule": "O=c1cc(-c2ccccc2)oc2c1ccc1ccccc12 [ALPHA-NAPHTHOFLAVONE]",
    "ASPARTATE AMINOTRANSFERASE / u/L": 81
  },
  {
    "molecule": "C[C@]12CCC(=O)C=C1CC[C@@H]1[C@@H]2C(=O)C[C@@]2(C)[C@H]1CC[C@]2(O)C(=O)CO [CORTISONE]",
    "ASPARTATE AMINOTRANSFERASE / u/L": 66.67
  },
  {
    "molecule": "CC[C@H]1OC(=O)[C@H](C)[C@@H](O[C@H]2C[C@@](C)(OC)[C@@H](O)[C@H](C)O2)[C@H](C)[C@@H](O[C@@H]2O[C@H](C)C[C@H](N(C)C)[C@H]2O)[C@](C)(O)C[C@@H](C)/C(=N\\OCOCCOC)[C@H](C)[C@@H](O)[C@]1(C)O [ROXITHROMYCIN]",
    "ASPARTATE AMINOTRANSFERASE / u/L": 66.67
  },
  {
    "molecule": "O=c1[nH]cc(F)c(=O)[nH]1 [FLUOROURACIL]",
    "ASPARTATE AMINOTRANSFERASE / u/L": 73.5
  },
  {
    "molecule": "CC(C)[C@H](N)C(=O)OCCOCn1cnc2c(=O)[nH]c(N)nc21 [VALACYCLOVIR]",
    "ASPARTATE AMINOTRANSFERASE / u/L": 89.67
  }
]

---

Each entry below lists one item and its recorded CREATINE PHOSPHOKINASE value.
- Organism: Rattus norvegicus
- procedure_details: DrugMatrix - Regimen: Daily Repeat
- Format: toxicity, organism-based, Sprague-Dawley
- Parameters: regimen Daily Repeat, gender Male, age 6-8 weeks
- experimental_parameters: in vivo, po, 10 mg/kg, 120 h, tissue Plasma, route oral GAVAGE, dose level Low, time 5 day, vehicle .5 % CMC
metric_name: CREATINE PHOSPHOKINASE (u/L)

[
  {
    "compound": "NS(=O)(=O)c1cc2c(cc1Cl)NCNS2(=O)=O [HYDROCHLOROTHIAZIDE]",
    "metric_name": "CREATINE PHOSPHOKINASE",
    "unit_descriptor": "u/L",
    "measured": 269.33
  },
  {
    "compound": "COc1c(C)c2c(c(O)c1C/C=C(\\C)CCC(=O)OCCN1CCOCC1)C(=O)OC2 [MYCOPHENOLATE MOFETIL]",
    "metric_name": "CREATINE PHOSPHOKINASE",
    "unit_descriptor": "u/L",
    "measured": 341.67
  },
  {
    "compound": "CC(=O)O[C@]1(C(C)=O)CC[C@H]2[C@@H]3C=C(Cl)C4=CC(=O)CC[C@]4(C)[C@H]3CC[C@@]21C [CHLORMADINONE ACETATE]",
    "metric_name": "CREATINE PHOSPHOKINASE",
    "unit_descriptor": "u/L",
    "measured": 290.67
  },
  {
    "compound": "O=C1CN=C(c2ccccc2)c2cc([N+](=O)[O-])ccc2N1",
    "metric_name": "CREATINE PHOSPHOKINASE",
    "unit_descriptor": "u/L",
    "measured": 186.67
  }
]
